TEST DESCRIPTION: Drug level in rat at 5 mg/kg administered via oral gavage after 24 hrs by LC-MS/MS analysis
Format: ADME, organism-based
TEST CONTEXT: in vivo, read-out: Drug uptake
PROPERTY MEASURED: concentration at 24 h (nM)
Give bare numbers, in nM.

Kindly note the recorded concentration at 24 h for `C=C(C)[C@@H]1CC[C@]2(NCCN3CCS(=O)(=O)CC3)CC[C@]3(C)[C@H](CC[C@@H]4[C@@]5(C)CC=C(c6ccc(C(=O)O)cc6)C(C)(C)[C@@H]5CC[C@]43C)[C@@H]12` , which is 128

Entry source: ChEMBL document CHEMBL3826912
